Source listed as PubChem BioAssay (NCI).

Can you tell me growth for the items I'm about to list?
system: CAKI-1 renal; test: NCI-60 one-dose screen, 48 h (100 = growth as untreated, 0 = no growth, -100 = all killed); details: 10 µM unless noted
Compounds without any hit were thinned out: in the full panel of roughly 83,000, 20% have a hit.
One number for each entry, in %.

Some molecules with known growth results, for comparison:
O=C(NCCCNc1cc(-c2cn(-c3ccccc3)nc2-c2cccc(O)c2)ccn1)c1cccc(O)c1 | 98.4
CCc1c2c(nc3ccc(OC(=O)OCc4ccc(B5OC(C)(C)C(C)(C)O5)cc4)cc13)-c1cc3c(c(=O)n1C2)COC(=O)[C@]3(O)CC | -44.1
c1c[nH]c(CNC2CCCCC2)c1 | 96.1
COc1cccc(Nc2nccc(Nc3ccc4[nH]ncc4c3)n2)c1 | -30.8
C=CCNc1nc(NN2C(=O)c3cccc4cccc(c34)C2=O)nc(-n2cnc3ccccc32)n1 | 51.5
COc1ccc(NC(=O)CSc2nc(C)c(C(C)=O)n2-c2ccc(Cl)cc2)cc1 | 97.8
Cn1cc2c(c1)-c1nc(Nc3ccccc3)ncc1CC2 | 48.8
Nc1cc2c3c(cccc3c1)C(=O)N(CCN1CCCC1)C2=O | 7.81

Fill in growth for each of the 8 molecules listed.
1. OC(COc1ccccc1Cl)COc1ccccc1Cl
2. O=c1ccn2nc3ccccc3c2[nH]1
3. CCN1CCN(c2cc(C)nc(NCc3cc(Nc4ccnc5cc(Cl)ccc45)ccc3F)n2)CC1
4. Cc1cc(NCc2cc(Nc3ccnc4cc(Cl)ccc34)ccc2F)nc(N2CCSCC2)n1
5. COc1ccc(C(=NN=C(N)N)c2ccc(OC)cc2)cc1
6. COc1ccccc1NC(=O)N/C(N)=N/c1nc2ccccc2s1
7. O=c1[nH]ccc2nc(N3CCC(O)CC3)nc(Nc3ccc(N4CCOCC4)cc3)c12
8. N#Cc1nc(C#N)c(Sc2ccccc2)c(Sc2ccccc2)c1Sc1ccccc1

## Result
106
89.4
87.8
60.9
73.4
36.4
26.3
17.7

Fill in growth for each of the 4 molecules listed.
1. COC(=O)c1c2c(c[n+]([O-])c1C)C(=O)C=CC2=O
2. NS(=O)(=O)c1cnccc1Sc1ccncc1S(N)(=O)=O
3. Nc1n[nH]c(-c2cc(Cl)ccc2O)c1-c1ccccc1
4. O=C(N/N=C/C=C/c1ccc([N+](=O)[O-])o1)c1cc2ccccc2cc1O

## Result
[62.1, 98.2, 79.7, 12.7]

Fill in growth for each of the 2 molecules listed.
1. O=[N+]([O-])c1ccc(C2CC(c3ccccc3)=Nc3ccccc3S2)cc1 (configuration not stated)
2. Cc1cccc(NC(=O)CSc2nc3ccccc3[nH]2)c1

## Result
93.6
82.6

###

test system: MOLT-4 leukemia; test: NCI-60 one-dose screen, 48 h; conditions: 10 µM unless noted
Compounds without any hit were thinned out: in the full panel of roughly 83,000, 20% have a hit. Activity calls are given as the source filed them. The calls were made as follows: active = growth percent below 10; inactive = the rest.
Answer with one of the outcomes yes (active), no (inactive)

Solved entries (count: 2):
C=C1C(=O)O[C@H]2[C@H]1CC/C(COC(=O)C(=O)c1c[nH]c3ccccc13)=C\CC[C@@]1(C)O[C@@H]21 | yes
Cc1cccc(NC(=O)N/C(N)=N/c2nc(C)c(C)s2)c1 | no

## Task What did this assay record as the result for CC/C=C\C/C=C\C[C@H](O)C/C=C1/C(=O)C=C[C@@H]1C/C=C\CCCC(=O)O ?
## Result yes

## Task What did this assay record as the result for CC(C)C(NC(=O)C1(NC(=O)OCc2ccccc2)CCCC1)C(=O)O (stereo unspecified) ?
## Result no

## Task What did this assay record as the result for CN(C)c1ccc(/C=C/C(=O)c2cccc(Nc3nc(Nc4ccccc4)nc(Nc4ccccc4)n3)c2)cc1 ?
## Result no

## Task What did this assay record as the result for O=C1N=c2cc3c(cc2=C/C1=C/c1sc(=S)n(CCc2ccc(O)cc2)c1O)OCCO3 ?
## Result no
